assay: Pharmacokinetics in male SD rats dosed PO (plasma and brain); format: in vivo, rat; details: rat; Plasma; male SD rats PO 5 mg/kg, 0.5% methylcellulose vehicle
Measurement label: Cmax (ng/mL)
Numbers only; they are read as ng/mL.

Lab book: Cmax of C=CC(=O)Nc1cc(Nc2nccc(-c3cn(C)c4ccccc34)n2)c(OC)cc1OCCN(C)C [1⋅Ms, methanesulfonate] noted as 96.3

---

assay: Pharmacokinetics in male SD rats dosed PO (plasma and brain); assay type: in vivo, rat; conditions: rat; Plasma; male SD rats PO 5 mg/kg
Measurement label: half-life (h)
Numbers only; they are read as h.

Lab book: half-life of C=CC(=O)Nc1cc(Nc2nccc(-c3cn(C)c4ccccc34)n2)c(OC)cc1OCCN(C)C [1⋅Ms, methanesulfonate] noted as 1.97
